Reported melting point values for the following compounds.

>  <compound>
CN1C(=O)[C@H](NC(=O)CCc2ccco2)N=C(c2ccccc2)c2ccccc21

>  <melting point>
115 to 118 °C

$$$$
>  <compound>
N#Cc1cnn(-c2ccc(Cl)c(Cl)c2Cl)c1NC=O

>  <melting point>
190 to 192 °C

$$$$
>  <compound>
O=C(O)CC(F)C(=O)c1ccc(-c2ccc(Cl)cc2)cc1 (stereo unspecified)

>  <melting point>
170 to 173 °C

$$$$
>  <compound>
NC1SC=CN1Sc1ccc(F)cc1F (stereo unspecified)

>  <melting point>
116 to 117 °C

$$$$
>  <compound>
Cc1cn(N)c2ccc(OCc3ccccc3)cc12

>  <melting point>
104 to 106 °C

$$$$
>  <compound>
OCC=CCOc1nc(F)c(Cl)cc1Cl

>  <melting point>
30 °C

$$$$

###

readout_type: melting point

>  <compound>
CNc1nnc(C(C)(C)C)c(=O)n1NC

>  <readout_type>
melting point

>  <readout_value>
170 to 171 °C

$$$$
>  <compound>
CC12CC(c3ccc(C=O)cc3)C3=C4CCC(=O)C=C4CCC3C1CCC2O (stereo unspecified)

>  <readout_type>
melting point

>  <readout_value>
197 to 200 °C

$$$$
>  <compound>
COC(=O)COc1cc2c(c(Cl)c1C)C(=O)C1(CCCC1)C2=O

>  <readout_type>
melting point

>  <readout_value>
152 to 154 °C

$$$$
>  <compound>
c1cnn(-c2cc(-n3cccn3)ncn2)c1

>  <readout_type>
melting point

>  <readout_value>
133 to 134 °C

$$$$
>  <compound>
CN1Cc2c(C(N)=O)ncn2-c2ccccc2C1=O

>  <readout_type>
melting point

>  <readout_value>
274 to 275 °C

$$$$
>  <compound>
CCOC(=O)C(=CNc1csnn1)C(=O)c1cc(F)c(Cl)nc1Cl

>  <readout_type>
melting point

>  <readout_value>
110 to 114 °C

$$$$
>  <compound>
CC(C)(C)OC(=O)N1C[C@@H](Br)C[C@@H]1C(=O)OCc1ccccc1

>  <readout_type>
melting point

>  <readout_value>
87 to 88 °C

$$$$
>  <compound>
CC(=O)NCC1CN(c2ccc(N3CCN(C(=O)COC(=O)CCN(C)C)CC3)c(F)c2)C(=O)O1 (stereo unspecified)

>  <readout_type>
melting point

>  <readout_value>
136 to 137 °C

$$$$
>  <compound>
CCOC(=O)c1[nH]c2ccc(Cl)cc2c1N

>  <readout_type>
melting point

>  <readout_value>
126 to 127 °C

$$$$
>  <compound>
CC=CC(=O)Oc1ccc(Nc2ccccc2)cc1

>  <readout_type>
melting point

>  <readout_value>
73 to 76 °C

$$$$
>  <compound>
NC(=O)Cn1c(=O)ccc2cc(Br)ccc21

>  <readout_type>
melting point

>  <readout_value>
257 to 258 °C

$$$$

###

Non-standard residues stand in square brackets, D forms with d. Residues, ends and D or L forms follow the SMILES beside them. *: point of attachment. Npys = O=[N+]([O-])c1cccnc1S*; Leu(ol) = CC(C)C[C@H](N)CO; Mpa = O=C(O)CCS

>  <compound>
O=C1CC(c2ccc(F)cc2)c2ccccc21 (centres undefined)

>  <melting point>
120 to 121 °C

$$$$
>  <compound>
CN1CCN(C2CCN(c3ncc4ncnc(Nc5ccc(F)c(Cl)c5)c4n3)CC2)CC1

>  <melting point>
163 to 165 °C

$$$$
>  <compound>
Cc1cccc(COc2cccc(OCc3ccc4cc(F)c(F)cc4n3)c2)c1OCC(=O)O

>  <melting point>
94 to 95 °C

$$$$
>  <compound>
CCCCCc1ccc(-c2ccc(Cl)s2)cn1

>  <melting point>
32 °C

$$$$
>  <compound>
CCN(Cc1ccc2nc(C)[nH]c(=O)c2c1)c1ccc(C(=O)NCc2nccn2Cc2ccccc2)cc1

>  <melting point>
217 to 221 °C

$$$$
>  <compound>
O=C(Nc1ccc2[nH]c(=O)oc2c1)C(=O)N1CCC(Oc2ccc(Cl)cc2)CC1

>  <melting point>
242 to 244 °C

$$$$
>  <compound>
O=C(CCCN1CC=C(c2noc(C3CC3)n2)CC1)c1ccc(F)cc1

>  <melting point>
67 to 68 °C

$$$$
>  <compound>
CC(C)C[C@@H](CO)NC(=O)[C@H](Cc1c[nH]cn1)NC(=O)[C@H](Cc1ccccc1)NC(=O)CCSSc1ncccc1[N+](=O)[O-] ([Mpa](Npys)FH[Leu(ol)])

>  <melting point>
109 to 112 °C

$$$$
>  <compound>
CCC(=O)Oc1cccc2c1C(=O)c1c(O)cccc1C2C(=O)CC (centres undefined)

>  <melting point>
125 °C

$$$$
